A collection of molecules and their measured EC50
- System: ERK1/2 phosphorylation of p90RSK in HCT116 cells
- method.description: Detection of total and phospho-RSK by MSD ELISA (HCT116)
- Type: cell-based
- test.parameters: Homo sapiens, HCT-116, read-out: ERK1/ERK2 PRSK HCT116 EC50

Use the examples below as a reference point.
INSERT INTO assay_data (compound_structure_string, recorded_value) VALUES
  ('C=CC(=O)Nc1cc(CN2CCN(C(=O)c3cnccn3)CC2)ccc1Nc1nc(Nc2cc(OC)ncc2C)ncc1C(F)(F)F', '< 100 nM'),
  ('C=CC(=O)Nc1cc(O[C@@H](C)C(=O)N2CCN(C(C)=O)CC2)ccc1Nc1nc(Nc2cc(OC)ncc2C)ncc1C(F)(F)F', '501 to 999 nM'),
  ('C=CC(=O)Nc1cc(Cl)ccc1Nc1nc(Nc2cc(OC)ncc2C)ncc1C(F)(F)F', '101 to 500 nM'),
  ('C=CC(=O)Nc1cc(C)ccc1Nc1nc(Nc2cc(OCCO)ncc2C)ncc1C(F)(F)F', '< 100 nM'),
  ('C=CC(=O)Nc1cc(C)ccc1Nc1nc(Nc2cc(OC)ncc2CO)ncc1C(F)(F)F', '101 to 500 nM');

Query string: Please report the recorded EC50 for C=CC(=O)Nc1cc(CN2CCN(C(=O)CO)CC2)ccc1Nc1nc(Nc2nc(OC)ncc2C)ncc1C(F)(F)F .
Result string: 501 to 999 nM

Query string: Same for C=CC(=O)Nc1cc(C)ccc1Nc1nc(Nc2cc(OC(C)C)ncc2C)ncc1C(F)(F)F
Result string: > 1000 nM
